Recorded log fold change Tl+ flux for the following molecules
Test system: F380Y/beta4
assayRemarks: modulators of BK channel variants, profiling panel, selectivity assay, cell-based, U2OS BacMam, thallium flux, beta subunits (AID 1259406);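 also: initial slope of Thallos dye fluorescence rise after thallium is added; log ratio against the mean of 0.3% DMSO vehicle wells on the same plate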
measurementParameters: at 30 µM
measurementLabel: log fold change Tl+ flux

INSERT INTO measurements (molecularstring, systemundertest, measurementlabel, recordedvalue) VALUES
  ('Cc1nc(-c2ccc(C(F)(F)F)cc2)sc1CO', 'F380Y/beta4', 'log fold change Tl+ flux', 0.104),
  ('CCCCCc1c(C)nc(-c2ccccn2)[nH]c1=O', 'F380Y/beta4', 'log fold change Tl+ flux', -0.0388),
  ('Oc1c(Cl)c(Cl)c(Cl)c2ccccc12', 'F380Y/beta4', 'log fold change Tl+ flux', 0.484),
  ('COC(=O)C(C#N)=CN(C)C', 'F380Y/beta4', 'log fold change Tl+ flux', 0.0217),
  ('Cc1cc(C)n2nc(Sc3ncccc3[N+](=O)[O-])nc2n1', 'F380Y/beta4', 'log fold change Tl+ flux', 0.00857),
  ('COc1ccc(CCNC(=O)c2ccccc2NC(=O)c2ccccc2C)cc1OC', 'F380Y/beta4', 'log fold change Tl+ flux', -0.615),
  ('O=C(Nc1ccc(-n2ccc(C(F)(F)F)n2)cc1)C1=Cc2cc(Cl)ccc2OC1', 'F380Y/beta4', 'log fold change Tl+ flux', -0.0159);

###

Catalogue of inhibition readings, one per entry.
systemUnderTest: L-lactate dehydrogenase (Plasmodium falciparum (isolate CDC / Honduras))
assayRemarks: PfLDH activity inhibition – cell lysate, 3D7 strain, counter-screen for P. falciparum growth inhibition project (AID 2304);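 also: 0% = vehicle and 100% = reference inhibitor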
measurementParameters: P. falciparum 3D7 crude extract, LDH APAD/NBT absorbance; at 2 µM; stronger effect = higher value
measurementLabel: inhibition (%)

INSERT INTO results (compound, systemundertest, recordedvalue) VALUES
  ('COc1cccc(-c2nc(Nc3ccncc3)c3ncn(C)c3n2)c1', 'L-lactate dehydrogenase (Plasmodium falciparum (isolate CDC / Honduras))', -1),
  ('Cc1cccc2[nH]c(-c3cccc(-c4ccc(NC(=O)Nc5ccc(Cl)c(Cl)c5)cc4)c3)nc12', 'L-lactate dehydrogenase (Plasmodium falciparum (isolate CDC / Honduras))', 7),
  ('Nc1cc(C=Cc2ccc([N+](=O)[O-])s2)nc2ccccc12', 'L-lactate dehydrogenase (Plasmodium falciparum (isolate CDC / Honduras))', -7),
  ('CCC(C)NC(=O)Nc1ccc(-c2cccc(-c3nc4c(C)cccc4[nH]3)c2)cc1 (stereo not given)', 'L-lactate dehydrogenase (Plasmodium falciparum (isolate CDC / Honduras))', 6),
  ('COc1c(C2CCN(CCCCNC(=O)C=Cc3ccccc3C(F)(F)F)CC2)ccc2c1CCCC2', 'L-lactate dehydrogenase (Plasmodium falciparum (isolate CDC / Honduras))', -3),
  ('Cc1cc(=O)c(-c2ccc(Oc3ccc(OC(F)(F)F)cc3)cc2)c(C)[nH]1', 'L-lactate dehydrogenase (Plasmodium falciparum (isolate CDC / Honduras))', 0),
  ('COCCOCCOCCn1ccc2c3c(N)nc(N)nc3ccc21', 'L-lactate dehydrogenase (Plasmodium falciparum (isolate CDC / Honduras))', -10),
  ('CN(C)CCNCc1ccc(-c2ccc3c(Nc4ccc(Oc5ccccc5)cc4)ccnc3c2)o1', 'L-lactate dehydrogenase (Plasmodium falciparum (isolate CDC / Honduras))', 2),
  ('N=C(N)c1nc2ccccc2s1', 'L-lactate dehydrogenase (Plasmodium falciparum (isolate CDC / Honduras))', -1),
  ('O=C1[C@H]2C(c3ccc(Cl)c(Cl)c3)N3CC(OCc4ccccc4)CC3(C(=O)O)[C@H]2C(=O)N1c1ccc(Br)cc1 (stereo not given in full)', 'L-lactate dehydrogenase (Plasmodium falciparum (isolate CDC / Honduras))', 2);

###

Test system: R275C/beta4
assayRemarks: modulators of BK channel variants, profiling panel, selectivity assay, cell-based, U2OS BacMam, thallium flux, beta subunits (AID 1259406);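 also: initial slope of Thallos dye fluorescence rise after thallium is added; log ratio against the mean of 0.3% DMSO vehicle wells on the same plate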
measurementParameters: at 30 µM
The source made the active and inactive calls.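 How the source made its calls: active means thallium flux through the channel raised or lowered by more than 3 SD from vehicle-only wells, actives on both sides; inactive means the rest.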
Labels: 1.0 = active, 0.0 = inactive

INSERT INTO measurements (compound, qualitativelabel) VALUES
  ('CC(=O)c1cc2cc(Cl)cc(Cl)c2oc1=O', 0.0),
  ('COc1nc(C)nc(Cl)c1NC1=NCCN1', 0.0),
  ('CCC(CO)NCCNC(CC)CO (centres undefined)', 0.0),
  ('CC(=O)Nc1ccc(S(=O)(=O)C[N+](=O)[O-])cc1', 0.0),
  ('CCOC(=O)Cn1c(=O)ccc2c(C)cc(C)nc21', 0.0),
  ('O=C(O[C@H]1[C@H](Oc2ccccc2COC(=O)C2(O)C=CCCC2=O)O[C@H](CO)[C@@H](O)[C@@H]1O)c1ccccc1 (some centres undefined)', 0.0),
  ('Cc1nc2ccc(C(=O)O)cc2[nH]1', 0.0),
  ('COCCCNC(=O)C(C#N)=CN(C)C', 0.0),
  ('Cc1cccc(CCN2CCC(C(=O)c3ccc(NS(C)(=O)=O)cc3)CC2)n1', 0.0),
  ('O=C(NNc1c(Cl)cccc1Cl)c1csc(Cc2c(Cl)cccc2Cl)n1', 0.0),
  ('CCc1nc2ccccc2nc1N1CCN(S(=O)(=O)c2ccc(Cl)cc2)CC1', 0.0),
  ('Cc1cc(NC(=S)N2CCCCCC2)ccc1Br', 1.0),
  ('Clc1cc(Cl)cc(Nc2ncnc(-n3cccc3)n2)c1', 0.0),
  ('O=c1[nH]cnc2scc(-c3cccs3)c12', 0.0),
  ('Cn1cnc([N+](=O)[O-])c1Sc1cccs1', 0.0),
  ('O=C1CSC(=S)N1N=Cc1cccnc1', 0.0),
  ('CC(=O)C1=C(C)Nc2ccccc2S1', 0.0),
  ('CO[C@H]1/C=C/O[C@@]2(C)Oc3c(C)c(O)c4c(O)c(c5c(c4c3C2=O)NC2(CCN(CC(C)C)CC2)N=5)=NC(=O)/C(C)=C\C=C\[C@H](C)[C@H](O)[C@@H](C)[C@@H](O)[C@@H](C)[C@H](OC(C)=O)[C@@H]1C', 0.0),
  ('O=c1[nH]c2ccccc2c2ccccc12', 0.0),
  ('CN1c2ccsc2C(=O)C(=NNc2cccc(C(F)(F)F)c2)S1(=O)=O', 0.0),
  ('C=CCNC(SC)=C(C#N)C(N)=O', 0.0),
  ('COC(=O)C(C#N)=CN(C)C', 0.0),
  ('Cc1cccc(N=Cc2cc(Cl)cc(Cl)c2O)c1C', 0.0),
  ('COc1c(N2C[C@@H]3CCCN[C@@H]3C2)c(F)cc2c(=O)c(C(=O)O)cn(C3CC3)c12', 0.0);

###

System: R275C/beta1
assayRemarks: modulators of BK channel variants, profiling panel, selectivity assay, cell-based, U2OS BacMam, thallium flux, beta subunits (AID 1259406);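 also: initial slope of Thallos dye fluorescence rise after thallium is added; log ratio against the mean of 0.3% DMSO vehicle wells on the same plate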
measurementParameters: at 30 µM
measurementLabel: log fold change Tl+ flux

INSERT INTO results (molecularstring, systemundertest, recordedvalue) VALUES
  ('Cc1nn(Cc2nnc(-c3cc(C(F)(F)F)cc(C(F)(F)F)c3)o2)c(C)c1Br', 'R275C/beta1', -0.0379),
  ('COc1ccc(C(C)=NO)cc1CN1CCCC1', 'R275C/beta1', 0.0511),
  ('COC(=O)c1cncc(Br)c1', 'R275C/beta1', -0.0547),
  ('Cc1nn(S(=O)(=O)c2ccccc2)c(C)c1Oc1ccc(Cl)cc1', 'R275C/beta1', -0.214),
  ('O=C(c1ccccc1)c1c(Cl)cc(C(F)(F)F)cc1Cl', 'R275C/beta1', 0.0087),
  ('FC(F)(F)c1cc(C=Cc2noc(-c3ccc(CN4CCCC4)cc3)n2)cc(C(F)(F)F)c1', 'R275C/beta1', 0.00631);

###

assayRemarks: sensitizers of A549 cells to miR-34 induction, primary screen, imaging, A549 dox-inducible miR-34, nuclei and caspase counts (AID 1347080)
measurementParameters: A549 miR-34 inducible, Hoechst nuclei count, 48 h; measured here: total cells without miR-34 induction
measurementLabel: cell count

INSERT INTO measurements (compound, measurementlabel, recordedvalue) VALUES
  ('COc1cc(/C=C/C(=O)N2CCC=CC2=O)cc(OC)c1OC', 'cell count', 3530),
  ('C[C@H](NC(=O)c1sccc1OCc1ccc(Cl)cc1)c1ccccc1', 'cell count', 3970),
  ('CN(C)CCCO[C@H]1[C@@H](C(O)CO)OC2OC(C)(C)O[C@@H]21 (stereo not given in full)', 'cell count', 12700),
  ('CCN(c1ccccc1)c1cc(NC)[n+](C)c(C)n1', 'cell count', 7790),
  ('CCCC1O[C@@H]2CC3C4CCC5=CC(=O)C=CC5(C)C4[C@@H](O)CC3(C)[C@]2(C(=O)CO)O1 (stereo not given in full)', 'cell count', 7800),
  ('CO[C@H]1/C=C/O[C@@]2(C)Oc3c(C)c(O)c4c(O)c(c5c(c4c3C2=O)NC2(CCN(CC(C)C)CC2)N=5)=NC(=O)/C(C)=C\C=C\[C@H](C)[C@H](O)[C@@H](C)[C@@H](O)[C@@H](C)[C@H](OC(C)=O)[C@@H]1C', 'cell count', 8270),
  ('C[C@]12C=CC(=O)C=C1CCC1C3C[C@@H](O)[C@](O)(C(=O)CO)[C@@]3(C)C[C@H](O)[C@@]12F (stereo not given in full)', 'cell count', 7760),
  ('CCCCC/C=C/CCC(=O)N[C@H]1[C@H](Oc2c3cc4cc2Oc2ccc(cc2Cl)[C@@H](O[C@@H]2O[C@H](CO)[C@@H](O)[C@H](O)[C@H]2NC(C)=O)[C@@H]2NC(=O)[C@H](NC(=O)[C@@H]4NC(=O)[C@H]4NC(=O)C(Cc5ccc(c(Cl)c5)O3)NC(=O)[C@H](N)c3ccc(O)c(c3)Oc3cc(O)cc4c3)c3ccc(O)c(c3)-c3c(OC4O[C@H](CO)[C@@H](O)[C@H](O)[C@@H]4O)cc(O)cc3[C@@H](C(=O)O)NC2=O)O[C@H](CO)[C@@H](O)[C@@H]1O (stereo not given in full)', 'cell count', 13200),
  ('O=C(O)CC(O)(CC(=O)O)C(=O)O', 'cell count', 13400),
  ('CC(=O)O[C@H]1C[C@@]2(C)[C@@H](C[C@@H](O)C3[C@]2(C)CC[C@H]2[C@H](C)[C@H](O)CC[C@]32C)/C1=C(/CCC=C(C)C)C(=O)O (stereo not given in full)', 'cell count', 12700),
  ('O=c1ncc(F)c[nH]1', 'cell count', 11100),
  ('Nc1ccc(S(=O)(=O)[O-])cc1.Nc1ccc(S(=O)(=O)[O-])cc1.[Zn+2]', 'cell count', 12600),
  ('C[C@H]1CC2C([C@@H](O)C[C@@]3(C)C2CC[C@]3(O)C(=O)COC(=O)CCC(=O)O)[C@@]2(C)C=CC(=O)C=C12 (stereo not given in full)', 'cell count', 7910),
  ('CC1(C)O[C@@H]2CC3C4C[C@H](F)C5=CC(=O)C=CC5(C)C4C(O)CC3(C)[C@]2(C(=O)CO)O1 (stereo not given in full)', 'cell count', 8110),
  ('CC(NCCc1ccc(O)cc1)C(O)c1ccc(O)cc1 (stereo not given)', 'cell count', 12600);
